The measured values listed here are drawn from PubChem BioAssay.

target: Follistatin (Homo sapiens); assay: follistatin binders on small-molecule microarrays, primary screen, biochemical, small-molecule microarray, 635/667 nm fluorescence (AID 1132); settings: FST binding, 635 nm fluorescence, higher = more signal
Consider the following compounds and their measured composite z-score readings.
Write the number on its own, no unit after it.

- Compound: "COc1ccc(CCNC(=O)[C@@H]2c3ccccc3C(=O)N(Cc3cc(F)cc(C(F)(F)F)c3)[C@H]2c2ccc(CO)cc2)cc1"
  System: "Follistatin (Homo sapiens)"
  composite z-score: 1

So what's the measured composite z-score for this one? CC(C)C[C@@H]1NC(=O)[C@@H]2C[C@H](C(=O)NCCCCCNC(=O)CS)[C@H](c3ccc(O)cc3)N2C1=O
0.815

So what's the measured composite z-score for this one? CC(C)C[C@@H]1NC(=O)[C@@H]2C[C@H](C(=O)NCCCCCCNC(=O)CS)[C@H](c3ccc(O)cc3)N2C1=O
1.46

So what's the measured composite z-score for this one? COC(=O)[C@]1(Cc2ccccc2N=[N+]=[N-])N=C(c2ccc(OCCCO)cc2)O[C@@H]1c1ccccc1CN=[N+]=[N-]
1.07

So what's the measured composite z-score for this one? C[C@]1(C(=O)NCC(F)(F)F)c2ccccc2C(=O)N(Cc2cc(C(F)(F)F)cc(C(F)(F)F)c2)[C@H]1c1ccc(CO)cc1
-0.0478

So what's the measured composite z-score for this one? CN(C)CCCC[C@@H]1NC(=O)[C@H]2C[C@@H](C(=O)NCCCCCCNC(=O)CS)[C@@H](c3cccc(OCCO)c3)N2C1=O
0.52

So what's the measured composite z-score for this one? C=CCNC(=O)[C@@H]1[C@H]2C(=O)O[C@H](c3ccccc3)[C@H](c3ccccc3)N2[C@H](c2ccc(O)cc2)[C@@]12C(=O)Nc1ccc(C#CC3=CCCCC3)cc12
1.24

So what's the measured composite z-score for this one? Cc1ccc(N2C(=O)c3ccccc3[C@@H](C(=O)NCCN3CCOCC3)[C@@H]2c2ccc(CO)cc2)nc1
0.37

So what's the measured composite z-score for this one? C=C(CC1([C@@H](NP(=O)(c2ccccc2)c2ccccc2)[C@H]2C[C@@H]2CCCC)CC1)c1cccc(OC)c1
0.43

So what's the measured composite z-score for this one? CCCCCCCCCCC(O)C1C=CC2C(=O)N(C)C(=O)C2N1Nc1ccccc1 (configuration not stated)
-1.68

So what's the measured composite z-score for this one? CCOC(=O)C[C@H]1[C@H](OC(=O)c2ccccc2-c2ccccc2)[C@@H](NC(=O)CC(C)C)c2cc(OCCCO)ccc2N1C(=O)c1ccccc1
1.01

So what's the measured composite z-score for this one? CC(C)(C)OC(=O)CC[C@]1(C(=O)N2CCOCC2)COC(c2ccc(OCCCO)cc2)=N1
-0.0198

====

target: NADPH oxidase 2 (Homo sapiens) (UniProt P04839); assay: NOX2-dependent H2O2 signal modulators, primary screen, NOX inhibitor project, cell-based, HEK293-NOX2, PMA-stimulated, Amplex Red fluorescence (AID 1159); conditions: 45 min, higher = more signal, called active from +8 up or from −8 down; further: test concentration not given here
Sequence (P04839 whole entry, looked up): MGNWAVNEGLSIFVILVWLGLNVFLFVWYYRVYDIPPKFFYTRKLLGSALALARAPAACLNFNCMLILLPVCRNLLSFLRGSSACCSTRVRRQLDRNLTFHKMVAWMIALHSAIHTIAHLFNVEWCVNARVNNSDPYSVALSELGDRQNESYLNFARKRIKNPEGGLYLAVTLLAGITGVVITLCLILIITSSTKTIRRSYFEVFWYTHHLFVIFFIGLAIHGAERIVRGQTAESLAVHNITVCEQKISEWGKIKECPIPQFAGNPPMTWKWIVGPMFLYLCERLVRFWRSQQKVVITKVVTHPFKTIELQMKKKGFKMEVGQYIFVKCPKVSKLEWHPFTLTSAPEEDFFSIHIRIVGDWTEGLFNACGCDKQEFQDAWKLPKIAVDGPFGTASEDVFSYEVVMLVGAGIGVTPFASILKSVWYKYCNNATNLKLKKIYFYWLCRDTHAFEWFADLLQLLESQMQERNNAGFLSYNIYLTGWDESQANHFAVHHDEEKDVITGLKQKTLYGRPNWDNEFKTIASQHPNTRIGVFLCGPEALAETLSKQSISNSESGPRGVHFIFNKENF
Consider the following molecules and their measured z-score readings.
Write the number on its own, no unit after it.

So what's the measured z-score for this one? C=CCNC(=O)[C@H]1[C@@H]2C(=O)O[C@@H](c3ccccc3)[C@@H](c3ccccc3)N2[C@@H](c2ccc(O)cc2)[C@]12C(=O)Nc1ccccc12
0.0548

So what's the measured z-score for this one? CC(C)C[C@@H]1NC(=O)[C@H]2C[C@@H](C(=O)O)[C@@H](c3cccc(OCCO)c3)N2C1=O
-0.911

So what's the measured z-score for this one? COC(=O)C1=CC(c2ccc(CO)cc2)=CC(C2CC2)N(Cc2cc3c(cc2Br)OCO3)C=C1C(=O)OC (centres undefined)
-0.853

====

test system: Sonic hedgehog protein (Shh); experiment: small-molecule binders of Shh protein, primary screen, biochemical, small-molecule microarray, 635/667 nm fluorescence (AID 1151); conditions: small-molecule microarray binding, 635 nm fluorescence; higher = more signal;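 further: Shh protein binding to compounds spotted on small-molecule microarray slides; score combines spot fluorescence intensity with signal-to-noise across triplicate slides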
Metric name: composite z-score
Write the number on its own, no unit after it.

The following compounds have reported results that may help.
- Compound: "CN1C(=O)C2C=CC(C(O)c3ccc([N+](=O)[O-])cc3)N(Nc3ccccc3)C2C1=O (stereo not drawn)"
  System: "Sonic hedgehog protein (Shh)"
  Measured result: -0.0538
- Compound: "COCCOC(=O)N1C(=O)[C@@]2(c3cc(C#CCNC(N)=O)ccc31)[C@H](C(=O)Nc1nc3ccccc3s1)[C@H]1C(=O)O[C@H](c3ccccc3)[C@H](c3ccccc3)N1[C@@H]2c1ccc(O)cc1"
  System: "Sonic hedgehog protein (Shh)"
  Measured result: 0.527

Would you kindly look at the next entry?
So what's the measured composite z-score for this one? CC(C)(C)OC(=O)CC[C@]1(C(N)=O)N=C(c2ccc(OCCCO)cc2)O[C@H]1c1ccccc1N=[N+]=[N-]
-0.74

====

assay: cell viability in Huh7 cells, primary screen, cytotoxicity control for HCV replication inhibitor project, CellTiter-Glo luminescence, basal, 48 h (AID 1143); settings: Huh7 HCV replicon, higher = more signal, called active from +8 up or from −8 down;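 further: Huh7 hepatoma cells carrying a hepatitis C replication reporter with no stimulus; test concentration not given here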
Metric name: z-score
Write the number on its own, no unit after it.

- Molecule: "COc1ccc(C(O)C2C=CC3C(=O)N(c4ccccc4)C(=O)C3N2Nc2ccccc2F)c2ccccc12 (configuration not stated)"
  z-score: -0.225
- Molecule: "[N-]=[N+]=Nc1ccccc1C[C@@]1(C(=O)NCc2ccccc2)N=C(c2ccc(OCCCO)cc2)O[C@@H]1c1ccccc1"
  z-score: -5.24
- Molecule: "C=C(CC1([C@@H](NP(=O)(c2ccccc2)c2ccccc2)[C@H]2C[C@@H]2CCCC)CC1)c1cccc(OC)c1"
  z-score: -1.65
- Molecule: "CC(C)(C)OC(=O)CC[C@]1(C(=O)N2CCOCC2)COC(c2ccc(OCCCO)cc2)=N1"
  z-score: -0.107
- Molecule: "CCCCCN1CC=CC23O[C@@H]4/C=C\\CCCOC(=O)C4[C@H]2C(=O)N(CCCCCO)[C@@H]3C1=O (some centres not stated)"
  z-score: -0.347
- Molecule: "CCOC(=O)C[C@H]1[C@H](OC(=O)c2cc3ccccc3oc2=O)[C@@H](NC(=O)c2ccc(-c3ccccc3)cc2)c2cc(OCCCO)ccc2N1C(=O)Cc1ccc(OC)cc1"
  z-score: -0.346
- Molecule: "CC(C)(C)OC(=O)CC[C@]1(C(N)=O)N=C(c2ccc(OCCCO)cc2)O[C@H]1c1ccccc1N=[N+]=[N-]"
  z-score: -0.284
- Molecule: "COCCCNC(=O)[C@]1(Cc2ccccc2CN=[N+]=[N-])N=C(c2ccc(OCCCO)cc2)O[C@@H]1c1ccccc1N=[N+]=[N-]"
  z-score: -4.12

So what's the measured z-score for this one? Cc1ccc(S[C@]2(C(=O)NCc3ccccc3)CC(=O)N(Cc3ccccc3C(F)(F)F)[C@@H]2c2ccc(CO)cc2I)cc1
-1.5

So what's the measured z-score for this one? O=C1C[C@@](C(=O)NCC(F)(F)F)(c2ccc([N+](=O)[O-])cc2)[C@@H](c2ccc(CO)cc2I)N1CC12CC3CC(CC(C3)C1)C2
-5.73

So what's the measured z-score for this one? C=CCOC(=O)[C@@H]1[C@H]2C(=O)O[C@H](c3ccccc3)[C@H](c3ccccc3)N2[C@H](c2ccc(OCCOC(=O)[C@@H]3C[C@@H]4C(=O)N[C@@H](CC(C)C)C(=O)N4[C@@H]3c3ccc(O)cc3)cc2)[C@@]12C(=O)Nc1ccc(I)cc12
-0.259

So what's the measured z-score for this one? O=C1O[C@H](c2ccccc2)[C@H](c2ccccc2)N2[C@H]1[C@@H](C(=O)Nc1nc3ccccc3s1)[C@]1(C(=O)Nc3ccccc31)[C@H]2c1ccccc1OCCO
-4.68

So what's the measured z-score for this one? COC(=O)[C@@]1(Cc2ccc(OC)cc2)[C@@H]2[C@@H](CC(=O)[C@H]2CC(=O)C(=O)N(C)C)CN1C(=O)c1ccccc1
-3.89

So what's the measured z-score for this one? CCCCC(=C=CC[C@@H](O)c1ccc(OCCO)cc1)CCO
-1.75

So what's the measured z-score for this one? C=C(CCCC)C(=O)CC[C@H](OC(=O)c1ccccc1-c1ccccc1C(=O)O)c1cccc(OCCO)c1
-0.548

So what's the measured z-score for this one? C=C(CCCC)C(=O)CC[C@@H](OC(C)=O)c1ccc(OCCO)cc1
-0.742

So what's the measured z-score for this one? COc1ccc(-c2cc3c(c(CCc4ccccc4)n2)[Si](C(C)C)(C(C)C)O[C@H]3c2ccccc2)cn1
-0.248

====

Consider the following molecules and their measured composite z-score readings.
molecular target: Neurogenic locus notch homolog protein 3 (Homo sapiens) (UniProt Q9UM47); assay: NOTCH3 binders on small-molecule microarray, primary screen, biochemical, 635/667 nm fluorescence (AID 1096); settings: NOTCH3 binding, 635 nm fluorescence, higher = more signal
Sequence (Q9UM47 whole entry, looked up): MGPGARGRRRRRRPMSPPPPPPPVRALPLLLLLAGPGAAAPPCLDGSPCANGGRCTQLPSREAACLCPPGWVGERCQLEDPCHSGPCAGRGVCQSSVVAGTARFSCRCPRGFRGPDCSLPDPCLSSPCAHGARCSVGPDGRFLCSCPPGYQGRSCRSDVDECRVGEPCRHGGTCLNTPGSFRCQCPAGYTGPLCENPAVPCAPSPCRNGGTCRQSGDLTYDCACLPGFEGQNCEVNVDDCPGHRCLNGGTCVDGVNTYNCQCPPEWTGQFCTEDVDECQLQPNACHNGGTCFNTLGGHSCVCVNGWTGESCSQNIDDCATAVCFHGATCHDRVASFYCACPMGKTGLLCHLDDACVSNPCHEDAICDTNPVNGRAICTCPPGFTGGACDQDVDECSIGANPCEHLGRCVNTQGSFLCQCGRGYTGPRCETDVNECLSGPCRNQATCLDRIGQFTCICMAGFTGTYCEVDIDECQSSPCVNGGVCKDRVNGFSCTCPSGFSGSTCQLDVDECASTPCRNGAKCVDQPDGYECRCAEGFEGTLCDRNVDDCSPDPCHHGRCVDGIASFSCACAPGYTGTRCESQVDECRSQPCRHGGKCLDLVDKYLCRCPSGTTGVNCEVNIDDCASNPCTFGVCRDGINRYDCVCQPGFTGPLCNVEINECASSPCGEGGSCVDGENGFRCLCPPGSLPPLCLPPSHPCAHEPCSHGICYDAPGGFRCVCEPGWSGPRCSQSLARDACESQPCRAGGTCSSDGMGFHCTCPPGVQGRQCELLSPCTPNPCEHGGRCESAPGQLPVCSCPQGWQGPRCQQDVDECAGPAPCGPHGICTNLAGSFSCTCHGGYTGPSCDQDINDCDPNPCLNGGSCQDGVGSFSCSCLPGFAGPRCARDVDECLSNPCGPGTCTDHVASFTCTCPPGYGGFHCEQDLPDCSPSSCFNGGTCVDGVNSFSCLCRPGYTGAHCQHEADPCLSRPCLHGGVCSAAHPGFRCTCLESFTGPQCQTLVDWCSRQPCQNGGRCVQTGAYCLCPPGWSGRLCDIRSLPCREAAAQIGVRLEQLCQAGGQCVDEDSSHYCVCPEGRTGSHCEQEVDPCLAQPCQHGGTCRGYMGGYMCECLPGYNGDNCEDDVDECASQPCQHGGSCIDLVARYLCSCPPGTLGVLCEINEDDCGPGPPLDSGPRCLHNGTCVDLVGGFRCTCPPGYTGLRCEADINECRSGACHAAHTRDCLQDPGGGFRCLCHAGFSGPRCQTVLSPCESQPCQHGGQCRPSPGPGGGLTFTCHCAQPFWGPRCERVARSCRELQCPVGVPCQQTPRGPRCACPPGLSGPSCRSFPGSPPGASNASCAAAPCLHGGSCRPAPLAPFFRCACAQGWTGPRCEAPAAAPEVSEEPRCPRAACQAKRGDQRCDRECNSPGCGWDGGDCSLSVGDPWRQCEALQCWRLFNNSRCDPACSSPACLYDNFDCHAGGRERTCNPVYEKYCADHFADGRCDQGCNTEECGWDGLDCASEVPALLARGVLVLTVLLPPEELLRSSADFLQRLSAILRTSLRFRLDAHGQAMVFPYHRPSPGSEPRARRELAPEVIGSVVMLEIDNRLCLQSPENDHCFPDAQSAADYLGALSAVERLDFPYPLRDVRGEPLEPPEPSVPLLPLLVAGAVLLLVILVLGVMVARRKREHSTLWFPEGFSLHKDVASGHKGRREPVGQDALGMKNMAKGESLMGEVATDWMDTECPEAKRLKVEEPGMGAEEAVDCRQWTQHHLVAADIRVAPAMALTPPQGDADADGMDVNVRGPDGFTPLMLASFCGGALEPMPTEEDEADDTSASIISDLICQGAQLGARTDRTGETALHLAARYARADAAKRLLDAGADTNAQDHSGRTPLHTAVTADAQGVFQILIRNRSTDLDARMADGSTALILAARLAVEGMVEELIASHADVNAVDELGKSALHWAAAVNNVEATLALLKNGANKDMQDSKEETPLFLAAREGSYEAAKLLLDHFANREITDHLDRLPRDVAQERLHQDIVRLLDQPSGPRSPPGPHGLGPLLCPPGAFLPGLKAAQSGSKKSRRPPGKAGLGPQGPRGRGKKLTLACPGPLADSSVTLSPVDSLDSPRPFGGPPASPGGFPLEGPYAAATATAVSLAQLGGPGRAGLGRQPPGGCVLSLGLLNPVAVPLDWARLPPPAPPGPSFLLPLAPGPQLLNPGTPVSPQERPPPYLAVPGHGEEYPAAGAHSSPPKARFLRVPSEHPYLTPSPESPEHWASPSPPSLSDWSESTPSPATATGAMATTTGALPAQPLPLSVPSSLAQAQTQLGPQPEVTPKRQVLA

So what's the measured composite z-score for this one? COC(=O)Cn1c(C(=O)N(C)C)cc2c1C[C@H]1CN(C(=O)c3ccccc3)[C@@](Cc3ccccc3)(C(=O)OC)[C@@H]21
0.0571

So what's the measured composite z-score for this one? CCCN1C(=O)[C@@]2(c3ccc([N+](=O)[O-])cc3)CC(=O)N(C3CCCCC3)[C@@H]2c2ccc(CO)cc21
-0.327

So what's the measured composite z-score for this one? CCc1cccc(NC(=O)O[C@H]2[C@H](OC(=O)Nc3ccccc3-c3ccccc3)[C@H](OC(=O)Nc3ccccc3-c3ccccc3)[C@@H](OC)O[C@@H]2CO)c1
1.05

So what's the measured composite z-score for this one? Cc1ccc(S(=O)(=O)N2[C@@H](c3ccccc3)C(C(=O)O)=C[C@H]2C(C)(C)C)cc1
1.08

So what's the measured composite z-score for this one? CC[C@@H](O[Si](C#C[Si](C(C)C)(C(C)C)C(C)C)(C(C)C)C(C)C)c1cn([C@H](C)c2ccccc2)nn1
0.785
